Recorded ED50 for the following compounds
tested on: Mus musculus; assay: Analgesic activity in po dosed CD-1 Charles River mouse assessed as inhibition of phenyl-p-benzoquinine-induced writhing administered 15 to 90 mins prior to phenyl-p-benzoquinine challenge measured after 5 mins; format: functional
Lab book: enter the figure in mg/kg, no units written.

- Cl.O=C1c2cc(F)ccc2Oc2ccccc2C12CCNCC2: 2.2
- Br.O=C1c2ccccc2Oc2ccccc2C12CCNCC2: 7.5
- Br.CN1CCC2(CC1)C(=O)c1cc(Cl)ccc1Oc1ccccc12: 5.2
- Br.CN1CCC2(CC1)C(=O)c1cc(F)ccc1Oc1ccccc12: 2
- Br.O=C1c2cc(Cl)ccc2Oc2ccccc2C12CCNCC2: 7.7

INPUT: Field request: ED50 | item: CCC(=O)O[C@](Cc1ccccc1)(c1ccccc1)[C@H](C)CN(C)C
OUTPUT: 24.6

====

assay: Ratio of ED50 for neurotoxicity in CD-1 Charles River mouse by rotarod test to ED50 for inhibition of phenyl-p-benzoquinine-induced writhing in CD-1 Charles River mouse; format: toxicity, organism-based; details: CD-1, mouse, in vivo; read-out: Ratio ED50
assay metric: selectivity ratio
Answer using only a numeral; do not append any unit.

INPUT: Can you look up the measured selectivity ratio of Cl.O=C1c2cc(F)ccc2Oc2ccccc2C12CCNCC2 for me?
OUTPUT: 17.6

====

test system: Mus musculus; assay: Ratio of ED50 for inhibition of phenyl-p-benzoquinine-induced writhing in po dosed CD-1 Charles River mouse to ED50 for inhibition of phenyl-p-benzoquinine-induced writhing in sc dosed CD-1 Charles River mouse; format: functional
Known Ratio ED50 of a selection of compounds

• CCC(=O)O[C@](Cc1ccccc1)(c1ccccc1)[C@H](C)CN(C)C [PROPOXYPHENE] = 6.3
• Br.CN1CCC2(CC1)C(=O)c1cc(Cl)ccc1Oc1ccccc12 = 1.5

INPUT: So what's the measured Ratio ED50 for this one? Br.O=C1c2ccccc2Oc2ccccc2C12CCNCC2
OUTPUT: 4.5

====

tested on: Mus musculus; experiment: Ratio of ED50 for inhibition of phenyl-p-benzoquinine-induced writhing in po dosed CD-1 Charles River mouse to ED50 for inhibition of phenyl-p-benzoquinine-induced writhing in sc dosed CD-1 Charles River mouse; assay type: functional
Reported Ratio ED50 is given for each of the following molecules.

Use the examples below as a reference point.
- Cl.O=C1c2cc(F)ccc2Oc2ccccc2C12CCNCC2: 1
- Br.O=C1c2cc(Cl)ccc2Oc2ccccc2C12CCNCC2: 2

Now turn to the next molecule.
INPUT: Item Br.CN1CCC2(CC1)C(=O)c1cc(F)ccc1Oc1ccccc12 has what recorded Ratio ED50?
OUTPUT: 1
